biological target: UniProtKB Q9F663; assay: Inhibition of nitrocefin cleavage by purified KPC-2; format: biochemical; conditions: nitrocefin reporter substrate; 10 min preincubation at room temperature; read-out: Ki (KPC-2, NCF)
Sequence (Q9F663 25-293 limits assumed): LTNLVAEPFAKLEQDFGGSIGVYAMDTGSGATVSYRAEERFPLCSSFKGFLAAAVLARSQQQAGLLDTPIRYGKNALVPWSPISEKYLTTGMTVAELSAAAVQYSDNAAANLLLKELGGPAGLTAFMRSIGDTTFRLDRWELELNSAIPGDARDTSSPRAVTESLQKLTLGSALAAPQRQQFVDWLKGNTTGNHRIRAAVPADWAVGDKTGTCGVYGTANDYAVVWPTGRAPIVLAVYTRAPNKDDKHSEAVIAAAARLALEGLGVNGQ
quantity-name: Ki

O=C(O)c1nccc2c1OB(O)[C@H]1C[C@@H]21 | 0.1 to 1 µM
COc1ccc2c(c1C(=O)O)OB(O)C1(CO)CC21 (stereo not shown) | < 0.1 µM
COc1ccc2c(c1C(=O)O)OB(O)C1C2[C@H]2C=C[C@@H]1C2 (stereo partly shown) | < 0.1 µM
COc1ccc2c(c1C(=O)O)OB(O)C=C2 | < 0.1 µM
O=C(O)c1c(F)ccc2c1OB(O)CC21CC1 | < 0.1 µM

Entry `O=C(O)c1cccc2c1OB(O)CC21CC1` needs its Ki filled in; supply it.
< 0.1 µM

Report Ki, nothing else, for this compound: `O=C(O)c1c(F)ccc2c1OB(O)[C@@H]1C[C@H]21`
< 0.1 µM

Numbers sourced from patent US11999759B2.
